B1: WDR41 (parent)
chain: WTMQAYERNFWDPSPQLDTQQEIK

Variants of: B1
Experiment: protein stability index of a GFP-peptide fusion (GPS, HEK-293T) (PSI 1-6); higher = more stable;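 note: lentivirally expressed fusions sorted by FACS into six bins by GFP to DsRed ratio, PSI derived from sequencing read proportions per bin multiplied by bin number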
Conditions: c terminus: a fixed tail appended
// reported protein stability index for each item listed
Give a plain numeric answer without units written out.

// solved cases for protein stability index follow
INSERT INTO results (variantnotation, observed) VALUES
  ('D12Q', 1.37),
  ('E7N', 3.04),
  ('Q16T', 2.67),
  ('M3E', 3.89),
  ('A5E', 3.65);

Turning now to a further variant:
// protein stability index value for M3G : 2.46

meta.source: the supplement of paper PMC10567573
